Species on record: Homo sapiens
TEST PROTOCOL: Selectivity ratio of IC50 for recombinant human IDO1 S167A mutant expressed in Escherichia coli SG13009(pREP4) to IC50 for recombinant human IDO1 expressed in bacterial expression system

COMPOUND	MODIFIER SIGN	Ratio IC50
Cc1ccccc1C1=[N+]([O-])c2ccccc2C1=O	=	5
O/N=C1\c2ccccc2NC1c1ccccc1 (stereo not drawn)	=	1
COC12C(COC(N)=O)C3=C(C(=O)C(C)=C(N)C3=O)N1CC1C2N1C (stereo not drawn)	=	63.6
CCn1c2ccccc2nc2cc3c(cc21)c(Cl)c(=O)c1ccccc13	=	23.1
O=[N+]([O-])c1cccc2nsnc12	=	2
O=c1c(O)cccc2cc(O)c(O)c(O)c12	=	16.7
O=C(O)c1cc(F)c2nonc2c1Nc1ccc(I)cc1F	=	1
COc1ccc(C2=[N+]([O-])c3ccccc3C2=O)cc1	=	39
Cn1c2ccccc2c2ccc3c(c21)C(=O)C=CC3=O	=	23.5
O=C1C(c2ccccc2)=[N+]([O-])c2ccccc21	=	3
CC[C@@H](CNc1cc(OC)cc2cccnc12)NC1CCCCC1	=	18.5
Clc1ccc(SCNc2ccccc2Cl)cc1	=	0.2
Cc1ccc2c(c1)c1ccc3c(c1n2C)C(=O)C=CC3=O	=	21.4
Fc1ccccc1-c1nc2c3ccccc3c3ccccc3c2[nH]1	=	0.5
Oc1ccc(-c2nc3c4ccccc4c4ccccc4c3[nH]2)cc1	>	2
C=Cc1cc(OC)c2c(c1)c(=O)oc1c2cc(OC)c2c(O)ccc([C@@H]3O[C@H](C)[C@H](O)[C@@](C)(O)[C@H]3O)c21	=	10.2
CC(=O)OCCn1c2nc(=O)[nH]c(=O)c-2nc2cc(C)c(C)cc21	=	32
Sc1ccc(Cl)cc1	=	0.5
Cc1cc(I)ccc1Nc1cc2nonc2cc1C(=O)O	=	1
Oc1cccc(-c2nc3c4ccccc4c4ccccc4c3[nH]2)c1	=	2
Cc1ccccc1-c1nc2c3ccccc3c3ccccc3c2[nH]1	=	1
O=[N+]([O-])c1ccc(NCSc2ccc(Cl)cc2)cc1	=	0.125

---

SYSTEM: Indoleamine 2,3-dioxygenase 1 (Homo sapiens, UniProt P14902)
TEST PROTOCOL: Inhibition of recombinant human IDO1 expressed in bacterial expression system at 400 uM using L-Tryptophan as substrate after 25 mins by fluorescence assay relative to control
Sequence (P14902 whole entry, looked up): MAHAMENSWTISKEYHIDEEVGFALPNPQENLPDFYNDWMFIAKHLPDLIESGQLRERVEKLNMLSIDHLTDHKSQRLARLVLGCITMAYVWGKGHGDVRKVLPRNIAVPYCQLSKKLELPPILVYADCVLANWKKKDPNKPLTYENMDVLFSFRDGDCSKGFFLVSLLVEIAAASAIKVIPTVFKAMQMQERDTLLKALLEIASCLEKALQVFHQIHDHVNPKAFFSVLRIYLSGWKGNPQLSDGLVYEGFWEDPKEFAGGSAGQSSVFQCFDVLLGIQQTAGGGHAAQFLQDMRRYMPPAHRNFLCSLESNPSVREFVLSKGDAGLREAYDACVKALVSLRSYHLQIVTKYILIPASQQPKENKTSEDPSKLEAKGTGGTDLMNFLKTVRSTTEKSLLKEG

MOL	inhibition, %
O=C1c2ccccc2C(=O)C1c1ccccc1	20
Oc1ccccc1-c1nc2ccccc2[nH]1	1
CC1=NC(SCc2ccc(Cl)cc2Cl)=NC(=O)C1	-8
Cc1ccccc1-c1nc2ccccc2[nH]1	-2

---

SYSTEM: Indoleamine 2,3-dioxygenase 1 (Homo sapiens, UniProt P14902)
TEST PROTOCOL: Inhibition of full length recombinant human His-tagged IDO1 expressed in mouse LLTC cells using L-tryptophan as substrate after 24 hrs
Type: cell-based
Sequence (P14902 whole entry): as the sequence (P14902 whole entry, looked up) above
Just so you know, the groups by IC50 go like this: band 1 = under 4 µM, band 2 = from 4 µM up to 20 µM, band 3 = 20 µM and over

MOLECULE	SYSTEM	CLASSIFICATION
CC1=NC(SCc2ccc(Cl)cc2Cl)=NC(=O)C1	Indoleamine 2,3-dioxygenase 1 (Homo sapiens, UniProt P14902)	band 3
Cc1ccc([S+]([O-])c2ccc([N+](=O)[O-])c3nonc23)cc1 (centres undefined)	Indoleamine 2,3-dioxygenase 1 (Homo sapiens, UniProt P14902)	band 2
O=C1C(c2ccccc2)=Nc2ccccc21	Indoleamine 2,3-dioxygenase 1 (Homo sapiens, UniProt P14902)	band 3
O=[N+]([O-])c1ccc(Sc2ccc(F)cc2)c2nonc12	Indoleamine 2,3-dioxygenase 1 (Homo sapiens, UniProt P14902)	band 2
O=C1C(c2ccccc2)=[N+]([O-])c2ccccc21	Indoleamine 2,3-dioxygenase 1 (Homo sapiens, UniProt P14902)	band 1
COc1ccc(C2=[N+]([O-])c3ccccc3C2=O)cc1	Indoleamine 2,3-dioxygenase 1 (Homo sapiens, UniProt P14902)	band 1
Clc1ccc(SCNc2ccccc2Cl)cc1	Indoleamine 2,3-dioxygenase 1 (Homo sapiens, UniProt P14902)	band 2
Oc1nccc(SCc2ccc(Cl)cc2Cl)n1	Indoleamine 2,3-dioxygenase 1 (Homo sapiens, UniProt P14902)	band 2
Oc1ccccc1-c1nc2c3ccccc3c3ccccc3c2[nH]1	Indoleamine 2,3-dioxygenase 1 (Homo sapiens, UniProt P14902)	band 3
O=C(O)c1cc(F)c2nonc2c1Nc1ccc(I)cc1F	Indoleamine 2,3-dioxygenase 1 (Homo sapiens, UniProt P14902)	band 3
Sc1ccc(Cl)cc1	Indoleamine 2,3-dioxygenase 1 (Homo sapiens, UniProt P14902)	band 2
COc1cc2c(cc1OC)[N+]([O-])=C(c1ccccc1)C2=O	Indoleamine 2,3-dioxygenase 1 (Homo sapiens, UniProt P14902)	band 2
O=[N+]([O-])c1ccccc1NCSc1ccc(Cl)cc1	Indoleamine 2,3-dioxygenase 1 (Homo sapiens, UniProt P14902)	band 2

Value source: ChEMBL document CHEMBL4007389
